- experimental.target: T1, recombinant Thermus thermophilus SlyD FKBP-Her3 (TtSlyD-FKBP-Her3)
- T1 construct: expressed in E. coli, the N-terminal methionine can be present or not; also called thermo SlyD-Her3; T.T.SlyD-Her3
- T1 chain: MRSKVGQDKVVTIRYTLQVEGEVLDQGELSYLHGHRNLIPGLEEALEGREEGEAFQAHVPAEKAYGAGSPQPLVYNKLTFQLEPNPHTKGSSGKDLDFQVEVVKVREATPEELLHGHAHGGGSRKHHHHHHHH
- protocol.description: SPR Biacore 4000 kinetic screening, antibody captured, analyte 150 nM, 25 C
Task for the reader: assign each of the following binders its reported BL (binding late).
Write it as a number; the unit RU goes unstated.

Find the measured BL (binding late) of anti-HER3 antibody M-08-11 (antibody, V domains shown, mouse monoclonal antibody from hybridoma, tested as hybridoma supernatant or as antibody; also called M-011) VH: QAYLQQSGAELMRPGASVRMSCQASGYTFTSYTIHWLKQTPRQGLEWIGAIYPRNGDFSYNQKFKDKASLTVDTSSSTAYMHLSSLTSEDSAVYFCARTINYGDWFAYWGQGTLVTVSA VL: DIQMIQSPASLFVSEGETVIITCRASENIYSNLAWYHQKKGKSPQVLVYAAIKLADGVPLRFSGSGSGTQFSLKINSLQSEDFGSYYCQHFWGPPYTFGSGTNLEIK and report it. 46

Find the measured BL (binding late) of anti-HER3 antibody M-46-01 (antibody, V domains shown, mouse hybridoma clone) VH: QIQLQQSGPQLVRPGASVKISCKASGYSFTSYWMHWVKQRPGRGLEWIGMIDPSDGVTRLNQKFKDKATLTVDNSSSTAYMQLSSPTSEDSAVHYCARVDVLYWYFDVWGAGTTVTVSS VL: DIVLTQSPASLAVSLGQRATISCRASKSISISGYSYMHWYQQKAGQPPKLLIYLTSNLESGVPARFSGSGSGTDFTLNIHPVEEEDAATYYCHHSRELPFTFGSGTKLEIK and report it. 80

Find the measured BL (binding late) of anti-HER3 antibody M-17-02 (antibody, V domains shown, mouse hybridoma clone) VH: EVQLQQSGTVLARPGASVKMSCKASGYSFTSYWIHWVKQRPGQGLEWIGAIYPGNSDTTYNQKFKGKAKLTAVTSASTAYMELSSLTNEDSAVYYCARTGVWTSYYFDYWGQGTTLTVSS VL: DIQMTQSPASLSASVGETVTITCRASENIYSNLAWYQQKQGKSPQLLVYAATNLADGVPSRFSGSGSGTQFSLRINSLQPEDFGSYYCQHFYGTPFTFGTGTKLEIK and report it. 52

Find the measured BL (binding late) of anti-HER3 antibody M-43-01 (antibody, V domains shown, mouse hybridoma clone) VH: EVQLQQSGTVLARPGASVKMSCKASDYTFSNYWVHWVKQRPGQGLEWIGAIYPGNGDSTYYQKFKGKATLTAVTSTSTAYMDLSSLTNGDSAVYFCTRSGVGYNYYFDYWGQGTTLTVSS VL: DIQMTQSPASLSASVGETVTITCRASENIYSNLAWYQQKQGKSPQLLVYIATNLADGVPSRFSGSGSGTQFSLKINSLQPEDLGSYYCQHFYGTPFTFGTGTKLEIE and report it. 53
